molecular target: recombinant human SK (Homo sapiens, UniProt Q9NYA1); construct: glutathione-S-transferase (GST) (N); made in house; host or cells: bacteria (pGEX vector); assay: Inhibition of recombinant human SK, LC/MS/MS assay; format: biochemical; conditions: 6 μg/ml compound
Sequence (Q9NYA1 whole entry): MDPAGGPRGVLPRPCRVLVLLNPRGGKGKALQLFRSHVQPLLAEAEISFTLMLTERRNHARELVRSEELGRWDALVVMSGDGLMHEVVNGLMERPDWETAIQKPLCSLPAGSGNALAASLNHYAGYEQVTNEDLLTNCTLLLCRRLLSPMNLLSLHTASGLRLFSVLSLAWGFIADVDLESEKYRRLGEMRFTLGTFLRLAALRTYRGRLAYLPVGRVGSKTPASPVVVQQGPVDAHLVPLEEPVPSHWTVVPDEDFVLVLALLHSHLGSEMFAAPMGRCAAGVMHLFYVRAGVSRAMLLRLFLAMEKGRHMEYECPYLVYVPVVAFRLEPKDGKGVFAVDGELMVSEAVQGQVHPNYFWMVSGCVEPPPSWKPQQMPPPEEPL
Listing: inhibition at 6 µg/mL of selected compounds

Compound: O=C(NCc1cc(F)cc(C(F)(F)F)c1)c1nc(-c2ccc(Cl)cc2)cs1 [Compound 75]
inhibition at 6 µg/mL: 3%

input: Requested read-out: inhibition at 6 µg/mL. Entry: CCCC(=O)Oc1ccccc1C=CC(=O)Nc1nc(-c2ccc(Cl)cc2)cs1 [Compound 13]
output: 0%

input: Requested read-out: inhibition at 6 µg/mL. Entry: O=C(NCc1cc(C(F)(F)F)cc(C(F)(F)F)c1)c1nc(-c2ccc(Cl)cc2)cs1 [Compound 60]
output: 87%

input: Requested read-out: inhibition at 6 µg/mL. Entry: C=CCCCCCCCCC(=O)Nc1nc(-c2ccc(Cl)cc2)cs1 [Compound 4]
output: 53%

input: Requested read-out: inhibition at 6 µg/mL. Entry: O=C(Nc1nc(-c2ccc(Cl)cc2)cs1)c1cccc(F)c1 [Compound 65]
output: 66%

input: Requested read-out: inhibition at 6 µg/mL. Entry: CCCC(=O)Oc1ccc(C=CC(=O)Nc2nc(-c3ccc(C)cc3)cs2)cc1OC [Compound 19]
output: 36%

input: Requested read-out: inhibition at 6 µg/mL. Entry: Fc1cc(F)cc(COCNc2nc(-c3ccc(Cl)cc3)cs2)c1 [Compound 79]
output: 53%

input: Requested read-out: inhibition at 6 µg/mL. Entry: CCCC(=O)Oc1ccc(CCC(=O)Nc2nc(-c3ccc(Cl)cc3)cs2)cc1OC(=O)CCC [Compound 26]
output: 0%

input: Requested read-out: inhibition at 6 µg/mL. Entry: CN(C)c1ccc(CNC(=O)c2nc(-c3ccc(Cl)cc3)cs2)cc1 [Compound 35]
output: 80%
